src = patent US20210253718A1

Test system: RWP1 cells
Assay: Effect of anti-FZD5 Fabs on proliferation of pancreatic cancer cell lines (percent growth inhibition)
Type: cell-based, human
Details: Fab 10 μg/ml
READOUT TYPE: percent growth inhibition, RWP1 10 μg/ml
Put down the number, then write its unit next to it.

| MOLECULE | percent growth inhibition, RWP1 10 μg/ml |
| --- | --- |
| Fab-2899: anti-FZD5 Fab with antibody variable region Fv-2899; CDR SEQ ID NOs: 35, 36, 38, 77, 114, 153 (antibody, V domains shown) VH: EVQLVESGGGLVQPGGSLRLSCAASGFNLYYYYMHWVRQAPGKGLEWVASIYPSSGSTSYADSVKGRFTISADTSKNTAYLQMNSLRAEDTAVYYCARGALDYWGQGTLVTVSS VL: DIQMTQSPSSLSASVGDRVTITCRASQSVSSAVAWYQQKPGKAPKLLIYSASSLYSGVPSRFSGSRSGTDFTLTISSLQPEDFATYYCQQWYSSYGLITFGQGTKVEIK | 47.83% |

Now for a further molecule.
For the molecule shown here, Fab-2929: anti-FZD5 Fab with antibody variable region Fv-2929; CDR SEQ ID NOs: 35, 36, 68, 106, 144, 162 (antibody, V domains shown) VH: EVQLVESGGGLVQPGGSLRLSCAASGFNISYYYIHWVRQAPGKGLEWVASIYPSSSSTSYADSVKGRFTISADTSKNTAYLQMNSLRAEDTAVYYCARGAMDYWGQGTLVTVSS VL: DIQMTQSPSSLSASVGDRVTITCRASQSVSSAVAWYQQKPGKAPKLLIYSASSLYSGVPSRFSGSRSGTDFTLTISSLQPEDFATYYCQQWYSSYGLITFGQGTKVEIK , give the reported percent growth inhibition, RWP1 10 μg/ml.
2.21%
